From: the supplement of paper PMC12042874

# protocol description: amyloid nucleation score (Sup35N fusion, yeast selection) (log enrichment); library NNK2; higher = more nucleation; inactive = no reads after selection;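 further: zero at mode of non-aggregating sequences after 7 days selection at 30°C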
Entries annotated with measured amyloid nucleation score
Reply with just the number.

substance | amyloid nucleation score
LPHLCCIIY | 2.56

Ask | Report amyloid nucleation score, nothing else, for this substance: VTLIRSSRVATSCHGGTLFC
Reply | 3.45

Ask | Report amyloid nucleation score, nothing else, for this substance: REFMNFWHWRVCICAQE
Reply | -0.501

---

# protocol description: amyloid nucleation score (Sup35N fusion, yeast selection) (log enrichment); library NNK3; higher = more nucleation; inactive = no reads after selection
value kind: amyloid nucleation score

// known answers, use as guide
substance | amyloid nucleation score
LICYQDLRLLAPWVQG | inactive
MKGQLARSSDLSRLDVNCMG | inactive
TVIWLYIFRSQMPPVNPMRL | inactive
NNVTSIN | -0.821
RISYMSGDYRPSKCACVYAE | inactive

Ask | Report amyloid nucleation score, nothing else, for this substance: IFCGPCLSSYRPKWTGMTSY
Reply | 2.12

Ask | Report amyloid nucleation score, nothing else, for this substance: VVMIPNIFCDWRGNGNNQCG
Reply | 1.33

Ask | Report amyloid nucleation score, nothing else, for this substance: CVPNWVVCRLSIYKF
Reply | inactive

Ask | Report amyloid nucleation score, nothing else, for this substance: CYVLVMKIPSHFKGTFMWHI
Reply | inactive

Ask | Report amyloid nucleation score, nothing else, for this substance: MLVATL
Reply | inactive

Ask | Report amyloid nucleation score, nothing else, for this substance: RCFKLLNSTECCSKWVRAFS
Reply | inactive

Ask | Report amyloid nucleation score, nothing else, for this substance: YAFGGQLFAFVLRNENIFSG
Reply | 1.37

Ask | Report amyloid nucleation score, nothing else, for this substance: KSSSAYNRSDHGLMLDRRTQ
Reply | inactive

Ask | Report amyloid nucleation score, nothing else, for this substance: LDAYLWNNCMYVYHLEPYSW
Reply | inactive

Ask | Report amyloid nucleation score, nothing else, for this substance: VVLRTSLCVMWINVRHLCDP
Reply | inactive

Ask | Report amyloid nucleation score, nothing else, for this substance: CSMPWLRSSTGGGVLLIEKS
Reply | inactive

Ask | Report amyloid nucleation score, nothing else, for this substance: GFLSGVKVLNGGEDNDTLPE
Reply | inactive
